# Tested on: Escherichia coli TOP10;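 also: peptides expressed intracellularly from a pBAD plasmid library in pooled LB shake-flask culture, induced with 0.3% L-arabinose, DNA abundance read by NGS, three biological replicates, DESeq2 with apeglm shrinkage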
# Assay summary: shrunken log2 fold change of peptide-encoding DNA abundance (4.5 h post-induction vs induction); higher = less antimicrobial activity (less host growth inhibition)
# Run conditions: time post-induction: 4.5 h; library: site-saturation at positions 5, 18, 19, 20
Classification by shrunken log2 fold change | ranges: low bin: < -0.08; mid bin: ≥ -0.08 and < 0.07; high bin: ≥ 0.07

Hi there! Could you help me figure out the category for RRIRKRPPRLPRPRPRPGQDPRP please?
high bin

Which class is correct for the following sequence? RRIRWRPPRLPRPRPRPAEAPRP
high bin

Please report the category associated with RRIRERPPRLPRPRPRPTSHPRP , nothing else.
low bin

Hi, small favor: classify RRIRARPPRLPRPRPRPAQLPRP by its shrunken log2 fold change when you get a moment.
high bin

Hi, small favor: classify RRIRMRPPRLPRPRPRPKWCPRP by its shrunken log2 fold change when you get a moment.
mid bin

New cases:
Kindly identify the class of RRIRPRPPRLPRPRPRPNRLPRP .
mid bin

For RRIRSRPPRLPRPRPRPHERPRP , which shrunken log2 fold change bin applies?
mid bin

Hi there! Could you help me figure out the category for RRIRGRPPRLPRPRPRPYHFPRP please?
mid bin

Bin? RRIRTRPPRLPRPRPRPIAMPRP
low bin

Would you mind sorting RRIRCRPPRLPRPRPRPPMGPRP into the appropriate category?
high bin

Just checking, what class would you give RRIRYRPPRLPRPRPRPEKYPRP here?
mid bin

Kindly identify the class of RRIRLRPPRLPRPRPRPWYGPRP .
low bin

Please classify: RRIRERPPRLPRPRPRPLVGPRP
low bin

Category of RRIRNRPPRLPRPRPRPCNHPRP , please.
low bin

Category of RRIRKRPPRLPRPRPRPGEPPRP :
high bin

State the class of the sequence shown: RRIRYRPPRLPRPRPRPQTAPRP
mid bin

Input RRIRVRPPRLPRPRPRPLHLPRP ; output its category
low bin

Class for RRIRARPPRLPRPRPRPAAEPRP ?
high bin

Record RRIRARPPRLPRPRPRPEIQPRP — which class?
high bin

Tag the class for RRIRSRPPRLPRPRPRPDQWPRP
mid bin

Category of RRIRYRPPRLPRPRPRPQPWPRP :
low bin
